Biological target: NS3-NS4A protease (Hepatitis C virus genotype 1a)
Construct: Recombinant E. coli or Baculovirus full-length NS3 was diluted to 3.33 μM with assay buffer; made in house; host or cells: E. coli or baculovirus (BV) system
Assay: NS3-NS4A protease assay (NS3 inhibition assay, RETS1 substrate), Section B
Assay type: biochemical
Conditions: read-out: NS3-NS4A IC50
pIC50: −log10 of the molar value.
Property: pIC50; scope: individual compounds
Result type: pIC50

molecule=CC(C)(C)OC(=O)N[C@H]1CCCCC/C=C\[C@@H]2C[C@@]2(C(=O)NS(=O)(=O)c2ccc(Cl)cc2)NC(=O)[C@@H]2C[C@@H](OC(=O)N3Cc4ccccc4C3)CN2C1=O target="NS3-NS4A protease (Hepatitis C virus genotype 1a)" result="> 7.00"
molecule=CC(=O)Nc1nc2c(s1)CN(C(=O)O[C@@H]1C[C@H]3C(=O)N[C@]4(C(=O)O)C[C@H]4/C=C\CCCCC[C@H](NC(=O)OC(C)(C)C)C(=O)N3C1)CC2 target="NS3-NS4A protease (Hepatitis C virus genotype 1a)" result="> 4.30"
molecule=O=C(NC1CCCC1)N[C@H]1CCCCC/C=C\[C@@H]2C[C@@]2(C(=O)NS(=O)(=O)C2CC2)NC(=O)[C@@H]2C[C@@H](OC(=O)N3Cc4cc(Cl)c(Cl)cc4C3)CN2C1=O target="NS3-NS4A protease (Hepatitis C virus genotype 1a)" result="> 7.00"

----------
Property: pIC50; scope: individual compounds
Biological target: NS3-NS4A protease (Hepatitis C virus genotype 1a, UniProt P27958)
Construct: Recombinant E. coli or Baculovirus full-length NS3 was diluted to 3.33 μM with assay buffer; made in house; host or cells: E. coli or baculovirus (BV) system
Sequence (P27958 1027-1657): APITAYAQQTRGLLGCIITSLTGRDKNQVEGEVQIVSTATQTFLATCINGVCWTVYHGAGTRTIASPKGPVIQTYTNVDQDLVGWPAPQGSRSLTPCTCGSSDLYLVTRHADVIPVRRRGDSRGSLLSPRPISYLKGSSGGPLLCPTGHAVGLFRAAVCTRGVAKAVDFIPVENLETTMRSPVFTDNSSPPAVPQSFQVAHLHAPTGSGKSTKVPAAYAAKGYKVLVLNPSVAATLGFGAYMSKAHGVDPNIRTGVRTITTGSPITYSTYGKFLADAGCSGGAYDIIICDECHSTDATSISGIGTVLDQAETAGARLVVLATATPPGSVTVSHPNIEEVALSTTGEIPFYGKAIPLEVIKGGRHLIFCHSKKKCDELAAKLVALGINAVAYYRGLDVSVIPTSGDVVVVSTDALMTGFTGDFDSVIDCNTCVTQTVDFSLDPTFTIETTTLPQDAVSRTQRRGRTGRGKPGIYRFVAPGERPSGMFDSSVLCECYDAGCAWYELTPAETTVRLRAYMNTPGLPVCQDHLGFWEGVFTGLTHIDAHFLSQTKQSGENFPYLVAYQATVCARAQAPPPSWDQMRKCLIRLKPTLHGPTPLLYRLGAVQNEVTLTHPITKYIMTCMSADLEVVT
Test: NS3-NS4A protease assay (NS3 inhibition assay, RETS1 substrate), Section B
Type: biochemical
Conditions: read-out: NS3-NS4A IC50
Method: NS3 complex formation with NS4A-2 Recombinant E. coli or Baculovirus full-length NS3 was diluted to 3.33 μM with assay buffer and the material transferred to an eppendorf tube and place in water bath in 4° C. refrigerator. […] The plate was read in kinetic mode on the Molecular Devices SpectraMax Gemini XS plate reader. […] IC50s were determined using a four parameter curve fit equation, and converted to Ki's using the following Km's: […]
pIC50: −log10 of the molar value.
Result type: pIC50

compound="COc1ccc2c(c1)CCN(C(=O)O[C@@H]1C[C@H]3C(=O)N[C@]4(C(=O)O)C[C@H]4/C=C\\CCCCC[C@H](NC(=O)OC(C)(C)C)C(=O)N3C1)C2CN1CCOCC1 (stereo partly drawn) [AR00333276]" result="> 5.00"
compound="CN(C)CCOc1ccc2c(c1)CN(C(=O)O[C@@H]1C[C@H]3C(=O)N[C@]4(C(=O)NS(=O)(=O)C5CC5)C[C@H]4/C=C\\CCCCC[C@H](NC(=O)OC(C)(C)C)C(=O)N3C1)C2 [AR00345095]" result="> 7.00"
compound="CC(C)(C)OC(=O)N[C@H]1CCCCC/C=C\\[C@@H]2C[C@@]2(C(=O)NS(=O)(=O)c2cc(C(=O)O)c(Cl)cc2F)NC(=O)[C@@H]2C[C@@H](OC(=O)N3Cc4ccccc4C3)CN2C1=O [AR00365426]" result="> 7.00"
